Ki values for Melanocyte-stimulating hormone receptor (Homo sapiens, UniProt Q01726), compiled from several publications.
Please give a number only; it is taken to be in nM.

Below, each entry is followed by its recorded Ki result.
• O=C(N[C@H](Cc1ccc(Cl)cc1)C(=O)N1CCN(c2ccccc2)CC1)C1Cc2ccccc2CN1 (stereo partly specified) = 13000
• CC(=O)N[C@@H](Cc1ccc(O)cc1)C(=O)N[C@@H](CCCNC(=N)N)C(=O)N[C@H]1CSSC[C@@H](C(N)=O)NC(=O)[C@H](Cc2c[nH]c3ccccc23)NC(=O)[C@H](CCCNC(=N)N)NC(=O)[C@@H](Cc2ccc(Cl)cc2)NC(=O)[C@H](Cc2c[nH]cn2)NC(=O)[C@H](CCC(=O)O)NC1=O = 8.22
• CC(=O)N[C@@H](CCCNC(=N)N)C(=O)N[C@H]1CSSC[C@@H](C(N)=O)NC(=O)[C@H](Cc2c[nH]c3ccccc23)NC(=O)[C@H](CCCNC(=N)N)NC(=O)[C@@H](Cc2ccccc2)NC(=O)[C@H](Cc2c[nH]cn2)NC(=O)[C@H](CCC(=O)O)NC1=O = 10.3
• CSCC[C@H](NC(=O)[C@H](CCCNC(=N)N)NC(=O)[C@H](Cc1ccc(O)cc1)NC(C)=O)C(=O)N[C@@H](CCC(=O)O)C(=O)N[C@@H](Cc1cnc[nH]1)C(=O)N[C@H](Cc1ccccc1)C(=O)N[C@@H](CCCNC(=N)N)C(=O)N[C@@H](Cc1c[nH]c2ccccc12)C(=O)NCC(N)=O = 0.21

Case `C[C@@H]1CN[C@@H](C)CN1/C(=N/c1ccc(C(=O)NCCc2ccc(Cl)cc2Cl)cc1)NC1CCCCC1` , Melanocyte-stimulating hormone receptor (Homo sapiens, UniProt Q01726), Ki recorded as 360

Case `N#Cc1ccc2c(c1)C(=O)N[C@@H](Cc1c[nH]cn1)C(=O)N[C@H](Cc1ccccc1)C(=O)N[C@@H](CCCNC(=N)N)C(=O)N[C@@H](Cc1c[nH]c3ccccc13)C(=O)N[C@H](C(N)=O)CS2` , Melanocyte-stimulating hormone receptor (Homo sapiens, UniProt Q01726), Ki recorded as 158

====

pKi values for UniProt Q01726, compiled from several publications.
When answering, recall that pKi equals minus log10 of the concentration in mol/L, and write that number alone.

Below, each entry is followed by its recorded pKi result.
* CCCCC(=O)N[C@@H](Cc1cnc[nH]1)C(=O)N[C@@H](Cc1ccccc1)C(=O)N[C@@H](CCCNC(=N)N)C(=O)N[C@@H](Cc1c[nH]c2ccccc12)C(N)=O | 7.69
* CSC[C@H](NC(=O)[C@H](Cc1c[nH]c2ccccc12)NC(=O)[C@H](CCCNC(=N)N)NC(=O)[C@@H](Cc1ccccc1)NC(=O)[C@H](Cc1cnc[nH]1)NC(=O)[C@H](CCC(=O)O)NC(=O)[C@H](CSC)NC(=O)[C@H](CCCNC(=N)N)NC(=O)[C@H](Cc1ccc(O)cc1)NC(C)=O)C(N)=O | 8.56

// below: pKi requested for another molecule
Case `CCCC[C@@H]1NC(=O)[C@@H]2CSC/C(=N/OCC(=O)NCCOCCOCCOCCN=[N+]=[N-])CSC[C@H](NC(=O)[C@H](CCCNC(=N)N)NC(=O)[C@H](CC(=O)O)NC(=O)[C@H](Cc3c[nH]c4ccccc34)NC(=O)[C@H](CCCNC(=N)N)NC(=O)[C@H](Cc3ccccc3)NC(=O)[C@H](Cc3cnc[nH]3)NC(=O)CNC1=O)C(=O)N[C@@H](Cc1cnc[nH]1)C(=O)N[C@@H](Cc1ccccc1)C(=O)N[C@@H](CCCNC(=N)N)C(=O)N[C@@H](Cc1c[nH]c3ccccc13)C(=O)N[C@@H](CCCNC(=N)N)C(=O)N2` , UniProt Q01726, pKi recorded as 9.41

====

Ki values for Melanocyte-stimulating hormone receptor (Homo sapiens, UniProt Q01726), compiled from several publications.
For each record, check the reported Ki: if it is below 0.1 µM write MET, else write NOT MET.

Worked examples, 3 molecules total:
- O=C(N[C@H](Cc1ccc(Cl)cc1)C(=O)N1CCN([C@H]2CCCC[C@@H]2n2cncn2)CC1)C1Cc2ccccc2CN1 (stereo not given in full): NOT MET
- CC(=O)N[C@H](CCCNC(=N)N)C(=O)N[C@H]1CSSC[C@@H](C(N)=O)NC(=O)[C@H](Cc2c[nH]c3ccccc23)NC(=O)[C@H](CCCNC(=N)N)NC(=O)[C@@H](Cc2ccccc2)NC(=O)[C@H](Cc2c[nH]cn2)NC(=O)[C@H](CCC(=O)O)NC1=O: MET
- CCN(CC)CC(c1ccccc1F)N1CCN(C(=O)[C@@H](Cc2ccc(Cl)cc2)NC(=O)[C@H]2Cc3ccccc3CN2)CC1 (stereo not given in full): NOT MET

Report whether reported Ki is lower than 0.1 µM (strictly) for `CNC(=O)[C@H](Cc1ccc2ccccc2c1)NC(=O)[C@H](CCCN=C(N)N)NC(=O)[C@@H](Cc1ccccc1)NC(=O)[C@H](Cc1c[nH]cn1)NC(C)=O` MET

Report whether reported Ki is lower than 0.1 µM (strictly) for `CC(=O)N[C@@H](Cc1ccc(O)cc1)C(=O)N[C@@H](CCCN=C(N)N)C(=O)N[C@H]1CSSC[C@@H](C(N)=O)NC(=O)[C@H](Cc2c[nH]c3ccccc23)NC(=O)[C@H](CCCN=C(N)N)NC(=O)[C@H](Cc2ccccc2)NC(=O)[C@H](Cc2c[nH]cn2)NC(=O)[C@H](CCC(=O)O)NC1=O` NOT MET

====

pKi values for Melanocyte-stimulating hormone receptor (Homo sapiens, UniProt Q01726), compiled from several publications.
When answering, recall that pKi equals minus log10 of the concentration in mol/L, and write that number alone.

Below, each entry is followed by its recorded pKi result.
* CN(C)C1CCc2cccc(N3CCN(C(=O)[C@@H](Cc4ccc(Cl)cc4)NC(=O)[C@H]4Cc5ccccc5CN4)CC3)c2C1 (stereo partly drawn) | 5.40
* CC(=O)N[C@H](Cc1ccc(O)cc1)C(=O)N[C@H](Cc1ccccc1)C(=O)N1C[C@H](OCc2ccccc2)C[C@@H]1CCCN=C(N)N | 8.05
* CC(=O)N[C@@H](Cc1cnc[nH]1)C(=O)N[C@H](Cc1ccccc1)C(=O)N1C[C@H](OCc2ccc3ccccc3c2)C[C@@H]1C(=O)NCCN=C(N)N | 7.89

Case `N=C(N)NCCC[C@H]1C[C@@H](OCc2ccc3ccccc3c2)CN1C(=O)[C@@H](Cc1ccccc1)NC(=O)[C@@H]1Cc2ccccc2CN1` , Melanocyte-stimulating hormone receptor (Homo sapiens, UniProt Q01726), pKi recorded as 7.38

Case `NC(=O)C[C@H](N)C(=O)N[C@H](Cc1ccccc1)C(=O)N1C[C@H](OCc2ccc3ccccc3c2)C[C@H]1CCCN=C(N)N` , Melanocyte-stimulating hormone receptor (Homo sapiens, UniProt Q01726), pKi recorded as 6.35

Case `N=C(N)NCCC[C@H](NC(=O)[C@H](Cc1ccccc1)NC(=O)[C@H](Cc1c[nH]cn1)NC(=O)CCc1ccccc1)C(=O)N[C@@H](Cc1c[nH]c2ccccc12)C(N)=O` , Melanocyte-stimulating hormone receptor (Homo sapiens, UniProt Q01726), pKi recorded as 8.22

Case `CC(C)C(=O)N[C@@H](Cc1cnc[nH]1)C(=O)N[C@@H](Cc1ccccc1)C(=O)N[C@@H](CCCNC(=N)N)C(=O)N[C@@H](Cc1c[nH]c2ccccc12)C(N)=O` , Melanocyte-stimulating hormone receptor (Homo sapiens, UniProt Q01726), pKi recorded as 7.40

Case CCN(CC)CC(c1ccccc1F)N1CCN(C(=O)[C@@H](Cc2ccc(Cl)cc2)NC(=O)CC2c3ccccc3CN2C)CC1 (stereo partly drawn) , Melanocyte-stimulating hormone receptor (Homo sapiens, UniProt Q01726), pKi recorded as 5.07

====

log10 of Ki values for Melanocyte-stimulating hormone receptor (Homo sapiens), compiled from several publications.
Scale type: logarithmic (base 10). Underlying Ki unit: nM.

`CC(=O)N[C@@H](Cc1ccc(O)cc1)C(=O)N[C@H](Cc1ccccc1)C(=O)N1C[C@H](OCc2ccc3ccccc3c2)C[C@@H]1C(=O)NCCN=C(N)N` yielded log10 of Ki of 3.31

`CC(=O)N[C@@H](Cc1ccc(O)cc1)C(=O)N[C@H](Cc1ccccc1)C(=O)N1C[C@@H](OCc2ccc3ccccc3c2)C[C@@H]1CCCN=C(N)N` yielded log10 of Ki of 2.14

`NC(N)=NCCC[C@H]1C[C@@H](OCc2ccc3ccccc3c2)CN1C(=O)[C@@H](Cc1ccccc1)NC(=O)[C@@H]1CCCCN1` yielded log10 of Ki of 1.60

`COc1cccc(CC(=O)NCC2(N3CCN(C(=O)[C@@H](Cc4ccc(Cl)cc4Cl)NC(=O)CCN)CC3)CCCCC2)c1` yielded log10 of Ki of 3.45

`Cc1ccc(N2CCN(C(=O)[C@@H]3CN(C4CCOCC4)C[C@H]3c3ccc(Cl)cc3)CC2)c([C@@H](N)C(C)C)c1` yielded log10 of Ki of 3.53

`CC(=O)N[C@@H](Cc1c[nH]cn1)C(=O)N[C@@H](Cc1ccccc1)C(=O)N[C@@H](CCCN=C(N)N)C(=O)N[C@@H](Cc1c[nH]c2ccccc12)C(N)=O` yielded log10 of Ki of 1.54

`Cc1ccc(N2CCN(C(=O)[C@H](C)Cc3ccc(Cl)cc3)CC2)c([C@@H](N)CC(C)C)c1` yielded log10 of Ki of 3.49
